Cited source: patent US11529361B2

For each of the compounds below, state its MIC.
Test system: 24 clinical isolate strains of C. difficile
Assay: Additional MIC determinations, antibacterial activity by OD600 (Example 3)
Format: cell-based, Clostridium difficile
Details: strain 7-7124449 (ST009)

MIC recorded for this compound, O=C(Nc1ccc(Br)cc1)c1cc(Br)cc(Br)c1O [Tribromsalan, 3,4′,5-tribromosalicylanilide] , is 0.063 µg/mL

Memo: "CCc1c(Cl)c(O)c(Cl)c(O)c1C(=O)O[C@H]1[C@H](O)[C@H](OC)[C@H](OC/C2=C\C=C\C[C@H](O)/C(C)=C/[C@H](CC)[C@@H](O[C@@H]3OC(C)(C)[C@@H](OC(=O)C(C)C)[C@H](O)[C@@H]3O)/C(C)=C/C(C)=C/C[C@@H]([C@@H](C)O)OC2=O)O[C@@H]1C" , reported MIC: < 0.008 µg/mL

Item: CC(=O)Oc1c(I)cc(I)cc1C(=O)Nc1ccc(Cl)cc1 [Clioxanide] | MIC: < 0.008 µg/mL

// field: MIC; key: Cc1cc(C(C#N)c2ccc(Cl)cc2)c(Cl)cc1NC(=O)c1cc(I)cc(I)c1O (stereo not shown) ; value = 0.25 µg/mL

For this compound ( "Cc1ncc([N+](=O)[O-])n1CCO" ), measured MIC is 2 µg/mL

So, O=C(Nc1cc(Cl)cc(Cl)c1O)c1c(O)c(Cl)cc(Cl)c1Cl [Oxyclozanide] ? Its MIC was 0.031 µg/mL

The reported value for O=C(Nc1ccc(Oc2ccc(Cl)cc2)c(Cl)c1)c1cc(I)cc(I)c1O [Rafoxanide] in terms of MIC is 0.031 µg/mL

====

Answer each item with its documented MIC.
Test system: 24 clinical isolate strains of C. difficile
Experiment: Additional MIC determinations, antibacterial activity by OD600 (Example 3)
Assay type: cell-based, Clostridium difficile
Details: strain 12064

Kindly note the recorded MIC for CC(=O)Oc1c(I)cc(I)cc1C(=O)Nc1ccc(Cl)cc1 [Clioxanide] , which is < 8 ng/mL

MIC reading for O=C(Nc1ccc(Oc2ccc(Cl)cc2)c(Cl)c1)c1cc(I)cc(I)c1O [Rafoxanide] : < 8 ng/mL

For Cc1ncc([N+](=O)[O-])n1CCO [Metronidazole] the compound record lists MIC as 31 ng/mL

Looking up CCc1c(Cl)c(O)c(Cl)c(O)c1C(=O)O[C@H]1[C@H](O)[C@H](OC)[C@H](OC/C2=C\C=C\C[C@H](O)/C(C)=C/[C@H](CC)[C@@H](O[C@@H]3OC(C)(C)[C@@H](OC(=O)C(C)C)[C@H](O)[C@@H]3O)/C(C)=C/C(C)=C/C[C@@H]([C@@H](C)O)OC2=O)O[C@@H]1C [Fidaxomycin] , I found its MIC recorded as < 8 ng/mL

Short answer for O=C(Nc1ccc(Br)cc1)c1cc(Br)cc(Br)c1O [Tribromsalan, 3,4′,5-tribromosalicylanilide] : MIC was < 8 ng/mL

Entry O=C(Nc1cc(Cl)cc(Cl)c1O)c1c(O)c(Cl)cc(Cl)c1Cl [Oxyclozanide] ; MIC = < 8 ng/mL

Form field MIC, entry Cc1cc(C(C#N)c2ccc(Cl)cc2)c(Cl)cc1NC(=O)c1cc(I)cc(I)c1O (stereo not shown) [Closantel] : 31 ng/mL

====

What MIC was measured for each of the following?
Test system: 24 clinical isolate strains of C. difficile
Experiment: Additional MIC determinations, antibacterial activity by OD600 (Example 3)
Type: cell-based, Clostridium difficile
Conditions: strain 12066
Lab book: enter the figure in µg/mL, no units written.

What the record says about O=C(Nc1ccc(Oc2ccc(Cl)cc2)c(Cl)c1)c1cc(I)cc(I)c1O [Rafoxanide] : MIC is 0.063

# molecule Cc1ncc([N+](=O)[O-])n1CCO [Metronidazole] ; its MIC = 1

Note to self: MIC recorded for Cc1cc(C(C#N)c2ccc(Cl)cc2)c(Cl)cc1NC(=O)c1cc(I)cc(I)c1O (stereo not shown) [Closantel] was 0.5

Consider O=C(Nc1ccc(Br)cc1)c1cc(Br)cc(Br)c1O [Tribromsalan, 3,4′,5-tribromosalicylanilide] . Its measured MIC is 0.031

====

Test system: 24 clinical isolate strains of C. difficile
Test: Additional MIC determinations, antibacterial activity by OD600 (Example 3)
Type: cell-based, Clostridium difficile
Conditions: strain 7-7150318 (ST059)
For each entry below, report its MIC value.
Express your answer in µg/mL, writing the number without its unit.

Cc1ncc([N+](=O)[O-])n1CCO [Metronidazole] has a reported MIC of 1

Sample O=C(Nc1cc(Cl)cc(Cl)c1O)c1c(O)c(Cl)cc(Cl)c1Cl [Oxyclozanide] ; MIC observed: 0.016

// Cc1cc(C(C#N)c2ccc(Cl)cc2)c(Cl)cc1NC(=O)c1cc(I)cc(I)c1O (stereo not shown) [Closantel] : MIC value = 0.63

====

Tested on: 24 clinical isolate strains of C. difficile
Assay: Additional MIC determinations, antibacterial activity by OD600 (Example 3)
Type: cell-based, Clostridium difficile
Details: strain 7-6778909 (ST016)
I'd appreciate it if you could supply MIC values for the items below.

Item: O=C(Nc1ccc(Br)cc1)c1cc(Br)cc(Br)c1O [Tribromsalan, 3,4′,5-tribromosalicylanilide] | System: 24 clinical isolate strains of C. difficile | MIC: < 8 ng/mL

Lab entry: 24 clinical isolate strains of C. difficile assay, compound O=C(Nc1ccc(Oc2ccc(Cl)cc2)c(Cl)c1)c1cc(I)cc(I)c1O [Rafoxanide] , MIC = < 8 ng/mL

Noted MIC for CC(=O)Oc1c(I)cc(I)cc1C(=O)Nc1ccc(Cl)cc1 [Clioxanide] , tested on 24 clinical isolate strains of C. difficile: < 8 ng/mL

Let me check: "CCc1c(Cl)c(O)c(Cl)c(O)c1C(=O)O[C@H]1[C@H](O)[C@H](OC)[C@H](OC/C2=C\C=C\C[C@H](O)/C(C)=C/[C@H](CC)[C@@H](O[C@@H]3OC(C)(C)[C@@H](OC(=O)C(C)C)[C@H](O)[C@@H]3O)/C(C)=C/C(C)=C/C[C@@H]([C@@H](C)O)OC2=O)O[C@@H]1C" , system 24 clinical isolate strains of C. difficile, measured MIC is < 8 ng/mL

The reported MIC value, 24 clinical isolate strains of C. difficile, for Cc1cc(C(C#N)c2ccc(Cl)cc2)c(Cl)cc1NC(=O)c1cc(I)cc(I)c1O (stereo not shown) reads 31 ng/mL

# value of MIC, 24 clinical isolate strains of C. difficile, item "Cc1ncc([N+](=O)[O-])n1CCO" = 250 ng/mL

# value of MIC, 24 clinical isolate strains of C. difficile, item O=C(Nc1cc(Cl)cc(Cl)c1O)c1c(O)c(Cl)cc(Cl)c1Cl [Oxyclozanide] = < 8 ng/mL

====

Test system: 24 clinical isolate strains of C. difficile
Experiment: Additional MIC determinations, antibacterial activity by OD600 (Example 3)
Type: cell-based, Clostridium difficile
Details: strain 7-7154992 (ST139)
Metric name: MIC

MIC for 24 clinical isolate strains of C. difficile with input O=C(Nc1cc(Cl)cc(Cl)c1O)c1c(O)c(Cl)cc(Cl)c1Cl [Oxyclozanide] equals < 8 ng/mL

Reported MIC (24 clinical isolate strains of C. difficile) for entry "CCc1c(Cl)c(O)c(Cl)c(O)c1C(=O)O[C@H]1[C@H](O)[C@H](OC)[C@H](OC/C2=C\C=C\C[C@H](O)/C(C)=C/[C@H](CC)[C@@H](O[C@@H]3OC(C)(C)[C@@H](OC(=O)C(C)C)[C@H](O)[C@@H]3O)/C(C)=C/C(C)=C/C[C@@H]([C@@H](C)O)OC2=O)O[C@@H]1C" is < 8 ng/mL

Hey, 24 clinical isolate strains of C. difficile data for CC(=O)Oc1c(I)cc(I)cc1C(=O)Nc1ccc(Cl)cc1 [Clioxanide] : MIC came out at < 8 ng/mL
